The values you see were collected from patent US20230348616A1.

tested_target: T1, 9A
T1 construct: also called HLA-A2 / point-mutant NY-ESO peptide 9A complex on T2 cells
test_details: flow cytometry on peptide-pulsed T2 cells, scFv 100 nM
parameter_measured: standardized gMFI

binder: NYA-1154 (scFv) scFv: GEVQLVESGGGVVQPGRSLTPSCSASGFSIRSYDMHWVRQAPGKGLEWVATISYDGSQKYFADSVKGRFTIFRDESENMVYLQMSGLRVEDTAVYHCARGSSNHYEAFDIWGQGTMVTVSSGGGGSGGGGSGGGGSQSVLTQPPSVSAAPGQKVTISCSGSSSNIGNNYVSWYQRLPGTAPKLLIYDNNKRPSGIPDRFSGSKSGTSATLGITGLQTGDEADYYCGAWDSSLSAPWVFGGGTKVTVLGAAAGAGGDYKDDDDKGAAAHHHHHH
standardized gMFI: 11.2

Shifting focus to the binder that follows.
What the record says about NYA-2027 (scFv) scFv: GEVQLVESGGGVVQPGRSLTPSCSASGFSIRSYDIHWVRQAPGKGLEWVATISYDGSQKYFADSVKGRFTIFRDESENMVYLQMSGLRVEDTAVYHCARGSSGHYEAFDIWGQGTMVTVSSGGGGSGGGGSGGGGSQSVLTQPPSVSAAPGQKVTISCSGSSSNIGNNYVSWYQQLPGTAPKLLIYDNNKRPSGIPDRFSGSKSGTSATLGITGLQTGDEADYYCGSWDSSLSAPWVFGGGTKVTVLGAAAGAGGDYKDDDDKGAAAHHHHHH : standardized gMFI is 6.9
